- System: NCI-H522
- procedure.text: NCI tumour cell line growth inhibition, 48 h
Active and inactive are the calls of the source. Rule as the data show it: active = GI50 up to about 1.1 µM and inactive = higher.
Recorded GI50 values for a group of compounds are listed next.

Sample records with GI50:
Query :: Name the recorded GI50 of the compound listed here: CN(C)CC/C(=N\Nc1ccc(Cl)cc1)c1ccccc1
Result :: 1.32 µM (inactive)

Query :: Write down GI50 measured for item O=C1Nc2ccccc2C12CCCC2
Result :: > 100 µM (inactive)

Query :: Please indicate GI50 recorded for O=C1C(Cl)=C(NCCO)C(=O)c2c(O)ccc(O)c21
Result :: > 10 µM (inactive)

Query :: Output measured GI50 for this item: CN1CCc2c(sc3ncn(C)c(=N)c23)C1
Result :: > 100 µM (inactive)

Query :: Report measured GI50; entry is CCCc1cn2c(/C=N/NC(=N)N)c(-c3cccc([N+](=O)[O-])c3)nc2s1
Result :: 1.98 µM (inactive)

New cases:
Query :: Consider the compound CC1=C(C(=O)Nc2ccccc2C)C(/C=C/c2ccccc2)C(C(=O)Nc2ccccc2C)=C(C)N1 . State its measured GI50.
Result :: 67.1 µM (inactive)

Query :: Please give measured GI50 of the following entry: Nc1cccc2c1C1=NNC(=O)CC1C2 (stereo unspecified)
Result :: > 100 µM (inactive)

Query :: Give me measured GI50, please, for this compound: COc1cc(C2c3cc4c(cc3CC3COC(=O)N32)OCO4)cc(OC)c1OC (stereo unspecified)
Result :: 1.57 µM (inactive)

Query :: Fill in GI50 for record CN(C)c1ccc(/N=N/c2ccc3[nH]cnc3c2)cc1
Result :: 19.3 µM (inactive)

Query :: Entry O=C(O)[C@@H](NS(=O)(=O)c1ccc([N+](=O)[O-])cc1)c1ccccc1 needs its GI50 filled in; supply it.
Result :: 73.6 µM (inactive)

Query :: Supply measured GI50 of COc1ccc(C2=CC(C(C)=C(C(N)=O)C(N)=O)C=C(c3ccc(Br)cc3)C2)c(OC)c1 (stereo unspecified) in your reply.
Result :: > 100 µM (inactive)

###

- Tested on: SK-MEL-28
- procedure.text: NCI tumour cell line growth inhibition, 48 h
The source made the active and inactive calls. No stated cut-off is given here; in the data, active = GI50 up to about 1.1 µM and inactive = higher.
Answer with one of the outcomes true for active, false for inactive

Please review the entries below; each comes with its answer.
Query :: Returns: the outcome recorded for CC(C(=O)c1ccccc1)C(c1ccccc1)N1CCOCC1 (stereo not given) in this assay.
Result :: false

Query :: Fill in: this test's call for Cc1cn(C2CC(O)C(CO)O2)c(=O)n2nnnc12 (stereo not given) is ___
Result :: false

Query :: Look up the recorded call for Cc1ccc(CC(=O)Nc2ccc(NC(=O)/C=C/NC(=O)/C=C/c3ccc(-c4ccccc4)cc3)cc2C(=O)c2ccccc2)cc1 in this test.
Result :: false

Query :: Record lookup: outcome of this test for COc1c2c(cc3nc4ccccc4nc13)CC[C@H](NC(C)=O)c1cc(=O)c(SC)ccc1-2 ?
Result :: false

Query :: Kindly provide the recorded test outcome for the following compound: COc1ccc(/C=C2\OC(=O)C(Cl)=C2c2ccc(OC)cc2)cc1
Result :: false

Others:
Query :: Could you check what this test reported for Cc1ccc(/N=N/c2c(O)ccc3cc(S(=O)(=O)O)cc(S(=O)(=O)O)c23)cc1 ?
Result :: false

Query :: // param item: Cc1nn(C(=O)c2ccc(Cl)cc2)c2c1C(c1ccccc1)SC(=N)N2 (stereo not given) ; yields the recorded call
Result :: false

Query :: Test call, this compound: CC1(C)COC(c2cccc3c2C(=O)c2cccc(Cl)c2-3)=N1
Result :: false

Query :: What did this assay record as the result for Cc1cccc2c(N)c3cccc(C(=O)NCCN(C)C)c3nc12 ?
Result :: true

Query :: Any idea what this test logged for C[N+](C)(C)CC1CCCC(C[N+](C)(C)C)C1=O (stereo not given) ?
Result :: false

Source of measurements: ChEMBL document CHEMBL1201862
